Source listed as ChEMBL document CHEMBL5303573.

ASSAY NAME: The drug is tested on Bacteroides vulgatus strain: ATCC8482 for biotransformation. The drug concentrations were measured before and after a 12-h incubation by liquid-chromatography-coupled mass spectrometry (LC–MS)
EXPERIMENTAL SETUP: phocaeicola vulgatus, 2 µM
RECORDED ENDPOINT: Bacterial Biotransformation

The examples below pair each entry with its known result.
CN(C)CCOC(C)(c1ccccc1)c1ccccn1.O=C(O)CCC(=O)O (configuration not stated) [DOXYLAMINE SUCCINATE]    Compound NOT metabolized
CN[C@H]1CC[C@@H](c2ccc(Cl)c(Cl)c2)c2ccccc21 [SERTRALINE]    Compound NOT metabolized
CNS(=O)(=O)Cc1ccc2[nH]cc(CCN(C)C)c2c1.O=C(O)CCC(=O)O [SUMATRIPTAN SUCCINATE]    Compound NOT metabolized
CC(=O)OCC(CCn1cnc2cnc(N)nc21)COC(C)=O [FAMCICLOVIR]    Compound metabolized
CCCCC(=O)O[C@]1(C(=O)CO)[C@@H](C)C[C@H]2[C@@H]3CCC4=CC(=O)C=C[C@]4(C)[C@@]3(F)[C@@H](O)C[C@@]21C [BETAMETHASONE VALERATE]    Compound metabolized

Item: COc1ccc2c(c1OC)C(=O)O[C@@H]2[C@H]1c2c(cc3c(c2OC)OCO3)CCN1C [NOSCAPINE] | Bacterial Biotransformation: Compound metabolized

Item: COC(=O)[C@H]1[C@H]2C[C@@H]3c4[nH]c5cc(OC)ccc5c4CCN3C[C@H]2C[C@@H](OC(=O)c2cc(OC)c(OC)c(OC)c2)[C@@H]1OC [RESERPINE] | Bacterial Biotransformation: Compound NOT metabolized

====

EXPERIMENTAL SETUP: parabacteroides distasonis, 12 h, 2 µM
Description: The drug is tested on Parabacteroides distasonis strain: ATCC8503 for biotransformation. The drug concentrations were measured before and after a 12-h incubation by liquid-chromatography-coupled mass spectrometry (LC–MS)
RECORDED ENDPOINT: Bacterial Biotransformation

The examples below pair each entry with its known result.
CN(C)CCC=C1c2ccccc2C=Cc2ccccc21 [CYCLOBENZAPRINE]    Compound NOT metabolized
CCOc1ccc(NC(C)=O)cc1 [PHENACETIN]    Compound NOT metabolized
Nc1nc2ccc(OC(F)(F)F)cc2s1 [RILUZOLE]    Compound metabolized
Fc1ccc([C@@H]2CCNC[C@H]2COc2ccc3c(c2)OCO3)cc1 [PAROXETINE]    Compound NOT metabolized
CN(C)C(=O)C(CCN1CCC(O)(c2ccc(Cl)cc2)CC1)(c1ccccc1)c1ccccc1 [LOPERAMIDE]    Compound metabolized

Item: CCOC(=O)[C@H](CCc1ccccc1)N[C@@H](C)C(=O)N1CCC[C@H]1C(=O)O.O=C(O)/C=C\C(=O)O [ENALAPRIL MALEATE] | Bacterial Biotransformation: Compound NOT metabolized

Item: CCN(CC)CCOC(=O)C(Cc1cccc2ccccc12)CC1CCCO1.O=C(O)C(=O)O (stereo unspecified) [NAFRONYL OXALATE] | Bacterial Biotransformation: Compound NOT metabolized

Item: COc1ccccc1OCC(O)CN1CCN(CC(=O)Nc2c(C)cccc2C)CC1 (stereo unspecified) [RANOLAZINE] | Bacterial Biotransformation: Compound NOT metabolized

Item: C=CC[C@@H]1/C=C(\C)C[C@H](C)C[C@H](OC)[C@H]2O[C@@](O)(C(=O)C(=O)N3CCCC[C@H]3C(=O)O[C@H](/C(C)=C/[C@@H]3CC[C@@H](O)[C@H](OC)C3)[C@H](C)[C@@H](O)CC1=O)[C@H](C)C[C@@H]2OC.O [TACROLIMUS] | Bacterial Biotransformation: Compound metabolized

Item: CC(=O)OCC(=O)NCCCOc1cccc(CN2CCCCC2)c1 [ROXATIDINE ACETATE] | Bacterial Biotransformation: Compound metabolized
